Provide the reported normalized growth of each item.
assaySummary: chemical genetic growth profiling, strain panel (AID 1159580);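 note: tested at 20 µM; growth read once vehicle control cultures reached saturation at 30 °C; 1 = growth at the plate median or of vehicle wells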
protocolConditions: S. cerevisiae deletion strains, growth OD, locus YBR009C, strain hhf1, stronger effect = lower value
About 2,000 (36%) of roughly 5,500 compounds were called active. Another 18% or so got no clear call; they are omitted. This is one part of the list.
Form rule: numeric answer, no unit written next to it.

Would you kindly share the measured normalized growth for `Cn1cnc2c1c(=O)[nH]c(=O)n2C` ?
0.997

Would you kindly share the measured normalized growth for `CC(C)[C@@H]1CC[C@@H](C)C[C@H]1OC(=O)c1ccccc1` ?
0.999

Would you kindly share the measured normalized growth for CC1CC(OC(=O)c2ccccc2O)CC(C)(C)C1 (configuration not stated) ?
0.914

Would you kindly share the measured normalized growth for CC(=CC1CCC(C)C2CCC(C)=C12)C(=O)O (configuration not stated) ?
0.958

Would you kindly share the measured normalized growth for `Cn1c(=O)[nH]c2ncn(C)c2c1=O` ?
0.995

Would you kindly share the measured normalized growth for CC(=O)OC1CCC2(O)CC1(C)CCC1C2CC1(C)C (configuration not stated) ?
1.03

Would you kindly share the measured normalized growth for `CC(=O)CCCCn1c(=O)c2c(ncn2C)n(C)c1=O` ?
1.02

----------
Provide the reported normalized growth of each item.
assaySummary: chemical genetic growth profiling, strain panel (AID 1159580);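 note: tested at 20 µM; growth read once vehicle control cultures reached saturation at 30 °C; 1 = growth at the plate median or of vehicle wells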
protocolConditions: S. cerevisiae deletion strains, growth OD, locus YJL095W, strain BCK1 (second series), stronger effect = lower value
In all, about 5,500 compounds went through this assay and about 2,000 (36%) were called active. Roughly 18% stayed inconclusive and do not appear here. The list shows a part of the results.
Form rule: numeric answer, no unit written next to it.

Would you kindly share the measured normalized growth for `CNC(=O)Oc1ccccc1OC(C)C` ?
0.986

Would you kindly share the measured normalized growth for `Oc1cccc2cccnc12` ?
0.09

Would you kindly share the measured normalized growth for `CCCCN(CC)c1c([N+](=O)[O-])cc(C(F)(F)F)cc1[N+](=O)[O-]` ?
1.01

Would you kindly share the measured normalized growth for `CCCN(CCC)c1c([N+](=O)[O-])cc(C(F)(F)F)cc1[N+](=O)[O-]` ?
1.01

Would you kindly share the measured normalized growth for Cc1cc2nc3c(=O)[nH]c(=O)nc-3n(CC(O)C(O)C(O)CO)c2cc1C (stereo unspecified) ?
0.985

Would you kindly share the measured normalized growth for COc1cc2c(cc1OC)C(C)NCC2 (stereo unspecified) ?
0.969

----------
assaySummary: chemical genetic growth profiling, strain panel (AID 1159580);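 note: tested at 20 µM; growth read once vehicle control cultures reached saturation at 30 °C; 1 = growth at the plate median or of vehicle wells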
protocolConditions: S. cerevisiae deletion strains, growth OD, locus YNL298W, strain CLA4
The campaign covered roughly 5,500 compounds. About 2,000 (36%) were called active. About 18% were inconclusive and are not listed. No stated cut-off is given here; in the data, active means normalized growth mostly below about 0.91 (no sharp cut-off); inconclusive means no clear call, values can overlap the other calls; inactive means mostly above about 0.92. This is one part of the list.
Outcome field: choose from True for active, False for inactive

Each compound tested received a call. Report the one for `COc1ccc(/C=C/c2cc(O)cc(O[C@@H]3O[C@H](CO)[C@@H](O)[C@H](O)[C@H]3O)c2)cc1` .
False

Each compound tested received a call. Report the one for `O=C(/C=C/c1ccccc1)c1ccc(O[C@@H]2O[C@H](CO)[C@@H](O)[C@H](O)[C@H]2O)cc1O` .
True

Each compound tested received a call. Report the one for C[C@H]1C(=O)CCC2[C@]3(C)CC[C@@]4(C)C5CC(C)(C)CC[C@]5(C)CC[C@]4(C)C3CC[C@@]21C (stereo partly drawn) .
False

Each compound tested received a call. Report the one for `OC[C@H]1O[C@@H](Oc2ccc(O)cc2)[C@H](O)[C@@H](O)[C@@H]1O` .
False

Each compound tested received a call. Report the one for `CCCc1ncc(C[n+]2ccccc2C)c(N)n1` .
False

Each compound tested received a call. Report the one for CC1(C)CC23C(=O)CCC(O)C2(C)CCC13 (stereo not drawn) .
False

Each compound tested received a call. Report the one for C[C@]12[C@H](O)CC3C(CC[C@@H]4C[C@@H](O)CC[C@]34C)[C@@]1(O)CC[C@@H]2C1=CC(=O)OC1 (stereo partly drawn) .
False

Each compound tested received a call. Report the one for `Oc1cccc2cccnc12` .
True

----------
assaySummary: chemical genetic growth profiling, strain panel (AID 1159580);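 note: tested at 20 µM; growth read once vehicle control cultures reached saturation at 30 °C; 1 = growth at the plate median or of vehicle wells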
protocolConditions: S. cerevisiae deletion strains, growth OD, locus YML032C, strain rad52
Hit rate of the full screen: of about 5,500 compounds, about 2,000 (36%) were called active. About 18% were inconclusive and are not listed. Cut-off read from the data, not from the text of the source: active = normalized growth mostly below about 0.91 (no sharp cut-off); inconclusive = no clear call, values can overlap the other calls; inactive = mostly above about 0.92. The list shows a part of the results.
Outcome field: choose from class 1 = active, class 0 = inactive

Each compound tested received a call. Report the one for `CC(C)N=C(N)N=C(N)Nc1ccc(Cl)cc1` .
class 0

Each compound tested received a call. Report the one for `CC1=C(C(=O)O)N2C(=O)[C@@H](NC(=O)[C@@H](N)c3ccc(O)cc3)[C@H]2SC1` .
class 0

Each compound tested received a call. Report the one for C[C@H]1C(=O)CCC2[C@]3(C)CC[C@@]4(C)C5CC(C)(C)CC[C@]5(C)CC[C@]4(C)C3CC[C@@]21C (some centres undefined) .
class 0

Each compound tested received a call. Report the one for `COc1ccc(/C=C/c2cc(O)cc(O[C@@H]3O[C@H](CO)[C@@H](O)[C@H](O)[C@H]3O)c2)cc1` .
class 0

Each compound tested received a call. Report the one for `CN1CCN(C2=Nc3cc(Cl)ccc3Nc3ccccc32)CC1` .
class 0

Each compound tested received a call. Report the one for CC(C)c1cc2c(c(O)c1O)[C@@]1(C(=O)O)CCCC(C)(C)C1CC2 (some centres undefined) .
class 0

Each compound tested received a call. Report the one for `O=C(O)c1cccnc1C(=O)O` .
class 0

Each compound tested received a call. Report the one for C[N+]12CCC(CC1)C(OC(=O)C(O)(c1ccccc1)c1ccccc1)C2 (centres undefined) .
class 0

Each compound tested received a call. Report the one for `O=C1c2ccccc2C(=O)c2ccccc21` .
class 0

Each compound tested received a call. Report the one for `O=C(CCc1ccc(O)cc1)c1c(O)cc(O)cc1O` .
class 0

Each compound tested received a call. Report the one for `O=C(O)CCC(=O)OC[C@@H](NC(=O)C(Cl)Cl)[C@H](O)c1ccc([N+](=O)[O-])cc1` .
class 0

Each compound tested received a call. Report the one for `CCCCCC/C=C\CCCCCCCc1cccc(O)c1C(=O)O` .
class 0

Each compound tested received a call. Report the one for `CC[C@H]1OC(=O)[C@H](C)[C@@H](O[C@H]2C[C@@](C)(OC)[C@@H](O)[C@H](C)O2)[C@H](C)[C@@H](O[C@@H]2O[C@H](C)C[C@H](N(C)C)[C@H]2O)[C@](C)(O)C[C@@H](C)/C(=N/OCOCCOC)[C@H](C)[C@@H](O)[C@]1(C)O` .
class 0

Each compound tested received a call. Report the one for `CON` .
class 0

Each compound tested received a call. Report the one for COC(=O)C[C@H]1C(C)(C)[C@H](O)[C@@H]2CC3=C4CC(O)O[C@@H](c5ccoc5)[C@]4(C)CCC3[C@@]1(C)C2=O (some centres undefined) .
class 0

Each compound tested received a call. Report the one for `CC(C)=CCC/C(C)=C/CO` .
class 0

Each compound tested received a call. Report the one for `COc1cc(Cc2cnc(N)nc2N)cc(OC)c1OC` .
class 0

Each compound tested received a call. Report the one for COC(=O)C[C@H]1C(C)(C)[C@@H](OC(C)=O)[C@@H]2CC3=C4CC(=O)O[C@@H](c5ccoc5)[C@]4(C)CCC3[C@@]1(C)C2=O (some centres undefined) .
class 0

Each compound tested received a call. Report the one for `O=C1C=C(O)c2ccccc2C1=O` .
class 0

Each compound tested received a call. Report the one for COc1cc2c(cc1OC)C(C)NCC2 (centres undefined) .
class 0

Each compound tested received a call. Report the one for `COc1cc([C@@H]2c3cc4c(cc3[C@H](O)[C@H]3COC(=O)[C@H]23)OCO4)cc(OC)c1OC` .
class 0

Each compound tested received a call. Report the one for `O=c1c(O)c(-c2ccccc2)oc2ccc3occc3c12` .
class 1

Each compound tested received a call. Report the one for `O=C(/C=C/c1ccccc1)c1c(O)cc(O)cc1O` .
class 0

Each compound tested received a call. Report the one for `COc1ccc(-c2c(OC)c3c(OC)c4c(cc3oc2=O)OC(C)(C)C=C4)cc1` .
class 0

Each compound tested received a call. Report the one for `C/C(=C\CO)CC[C@H](C)CCC[C@H](C)CCCC(C)C` .
class 1

Each compound tested received a call. Report the one for CC(=O)Oc1c(C)c(C)c2c(c1C)CCC(C)(CCCC(C)CCCC(C)CCCC(C)C)O2 (centres undefined) .
class 0

Each compound tested received a call. Report the one for `O=C1NS(=O)(=O)c2ccccc21` .
class 0

Each compound tested received a call. Report the one for `COc1cc(OC)c2c(OC)c(-c3ccc4c(c3)OCO4)c(=O)oc2c1` .
class 0

Each compound tested received a call. Report the one for `OC[C@H]1O[C@@H](Oc2ccc(O)cc2)[C@H](O)[C@@H](O)[C@@H]1O` .
class 0

Each compound tested received a call. Report the one for `COc1ccc(CC(=O)c2ccc(O)cc2O)cc1` .
class 0

Each compound tested received a call. Report the one for `CC(=O)OCC1=C(C(=O)O)N2C(=O)[C@@H](NC(=O)CSc3ccncc3)[C@H]2SC1` .
class 0

Each compound tested received a call. Report the one for `O[C@H]1[C@H](O)[C@@H](O)C2OC[C@H]1O2` .
class 0

Each compound tested received a call. Report the one for `COc1ccc(-c2c(O)c3c(OC)c4c(cc3oc2=O)OC(C)(C)C=C4)cc1` .
class 1

Each compound tested received a call. Report the one for `O=C(O)c1cc(=O)c2ccccc2[nH]1` .
class 0
